Record form. Attribute: log10(EC50). Fill in for each entry.
# target.system: K-Ras G12C (Homo sapiens (Human), UniProt P01116, G12C)
# Sequence (P01116 other isoform, or with tags, fused parts or gaps G12C): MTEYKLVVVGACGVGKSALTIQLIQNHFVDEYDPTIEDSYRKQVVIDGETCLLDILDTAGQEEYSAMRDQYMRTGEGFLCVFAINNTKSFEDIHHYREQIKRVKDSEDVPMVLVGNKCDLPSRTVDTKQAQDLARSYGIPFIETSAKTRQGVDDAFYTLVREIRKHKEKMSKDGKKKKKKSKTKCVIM
# measurement.protocol: Western blot assay for in cell alkylation of K-Ras G12C (HCC1171 cells)
# test.settings: 18 hours at 37° C., 7 point dose response
Give log10 of EC50, with EC50 taken in nM.

Looking for the measured log10(EC50) of C=CC(=O)N1CCN(c2nc(OC[C@@H]3C[C@@H](OC(F)F)CN3C)nc3cc(-c4nc(N)ccc4C(F)(F)F)c(Cl)cc23)CC1 [Example 92] , can you help?
1.26

Same lookup for C=CC(=O)N1CCN(c2ncnc3cc(-c4nc(NC)ccc4C(F)(F)F)c(Cl)cc23)CC1 [Example 53] , please.
3.53

Same lookup for C=CC(=O)N1CCN(c2ncnc3c(F)c(-c4nc(N)cc5cccc(F)c45)c(Cl)cc23)CC1 [Example 27] , please.
2.15

Same lookup for Cc1cc(N)nc(-c2cc3ncnc(N4CCN(C(=O)C5=CCC5)C(C#N)C4)c3cc2Cl)c1C(F)(F)F (stereo not shown) [Example 23] , please.
2.96

Same lookup for C=CC(=O)N1CCN(c2ncnc3cc(-c4nc(N)cc(C)c4C(F)(F)F)c(Cl)cc23)CC1 [Example 44] , please.
1.79

Same lookup for C=CC(=O)N1CCN(c2ncnc3cc(-c4ncccc4C)c(Cl)cc23)CC1 [Example 2] , please.
4.20

Same lookup for C=CC(=O)N1CCN(c2ncnc3cc(-c4nc(N)ccc4C)c(Cl)cc23)CC1 [Example 15] , please.
3.45

Same lookup for C=CC(=O)N1C[C@H](C)N(c2ncnc3cc(-c4nc(N)cc(C)c4C(F)(F)F)c(Cl)cc23)[C@@H](C)C1 [Example 60] , please.
1.86

Same lookup for C=CC(=O)N1CCN(c2ncnc3cc(-c4nc(N)cc5ccccc45)c(Cl)cc23)CC1 [Example 1] , please.
2.75

Same lookup for C=CC(=O)N1CCN(c2ncnc3cc(-c4nc(N)cc(C5CC5)c4C(F)(F)F)c(Cl)cc23)CC1 [Example 34] , please.
3.53

Same lookup for C=CC(=O)N1CCN(c2ncnc3cc(-c4nc(N)ccc4C(F)(F)F)c(Cl)cc23)CC1 [Example 35] , please.
2.65

Same lookup for C=CC(=O)N1CCN(c2nc(OC[C@@H]3CCCN3C)nc3cc(-c4nc(N)ccc4C(F)(F)F)c(Cl)cc23)CC1 [Example 70] , please.
1.28

Same lookup for C=CC(=O)N1CCN(c2nc(OCC3(C)C[C@@H](F)CN3C)nc3cc(-c4nc(N)ccc4C(F)(F)F)c(Cl)cc23)CC1 (stereo partly shown) [Example 96] , please.
1.34

Same lookup for C=CC(=O)N1CCN(c2ncnc3cc(-c4nc(N)ccc4OC(F)(F)F)c(Cl)cc23)CC1 [Example 40] , please.
3.04

Same lookup for C=CC(=O)N1CC(c2ncnc3cc(-c4nc(N)ccc4C(F)(F)F)c(Cl)cc23)C1 [Example 50] , please.
3.72
